- Tested on: PKAC-alpha;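 note: KINOMEscan kinase panel screen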
- Construct: gene PRKACA
- run-parameters: concentration: 1 μM,replicates: in singlicate; n = 1
Entries and their %Inh values follow.
measured-metric: %Inh (%)

- compound: "CS(=O)c1ccc(-c2coc3ccc(-c4n[nH]c(=O)o4)cc23)cc1 (stereo not drawn)"
  reading-unit: "%"
  value: 0
- compound: "CNC(=O)c1ccccc1Nc1nc(Nc2cccc(CS(C)(=O)=O)c2)ncc1C.O=CO"
  reading-unit: "%"
  value: 11
- compound: "FC(F)(F)c1cc(Br)cc(Nc2nccc(-c3cnn4ncccc34)n2)c1"
  reading-unit: "%"
  value: 17
- compound: "Cc1nnc(-c2ccc3occ(-c4ccc(S(C)=O)cc4)c3n2)o1 (stereo not drawn)"
  reading-unit: "%"
  value: 0
- compound: "C[C@@H]1CNc2c(sc3ccc4nc(-c5ccc(O)cc5)ccc4c23)C(=O)N1"
  reading-unit: "%"
  value: 4
- compound: "O=C(Nc1cccc(Oc2ccc3nccn3n2)c1)Nc1cccc(C(F)(F)F)c1"
  reading-unit: "%"
  value: 66
